- Tested On: rat pancreas (3H-CCK-8-(SO3 H) receptor binding) (Rattus norvegicus, UniProt P30551)
- Construct: pancreas approximately 0.100 mg protein in 1 mL final volume; from tissue; host or cells: rat pancreas membrane homogenate
- Sequence (P30551 whole entry): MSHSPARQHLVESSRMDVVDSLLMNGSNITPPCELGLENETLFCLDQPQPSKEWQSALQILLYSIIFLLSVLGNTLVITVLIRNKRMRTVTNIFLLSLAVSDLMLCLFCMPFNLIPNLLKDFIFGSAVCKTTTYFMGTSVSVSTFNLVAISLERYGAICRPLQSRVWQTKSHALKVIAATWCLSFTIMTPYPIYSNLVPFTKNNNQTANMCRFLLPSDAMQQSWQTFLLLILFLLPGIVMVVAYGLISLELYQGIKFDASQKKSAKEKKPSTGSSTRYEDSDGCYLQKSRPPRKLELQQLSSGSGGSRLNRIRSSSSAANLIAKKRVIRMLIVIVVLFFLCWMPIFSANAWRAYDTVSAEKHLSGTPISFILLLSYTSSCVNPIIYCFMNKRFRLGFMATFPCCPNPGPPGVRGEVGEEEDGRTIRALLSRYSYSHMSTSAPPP
- Test Name: In vitro receptor binding assay, 3H-CCK-8-(SO3H), rat pancreas homogenate
- Run Parameters: 3H-CCK-8-(SO3H) 0.15 nM, 30 min at 25° C., rat pancreas homogenate; read-out: Rate Pancreas IC50 (concentration to inhibit 50% of specific 3H-CCK-8-(SO3H) binding)
Starred links: 1 amine or outer side, 2 acyl side, 3 side chain; linkers in the order of their positions; H or OH if unused. Positions of bridges follow the written chain, without caps; N, C: chain ends. Non-standard residues stand in square brackets, D forms with d. Residues, ends and D or L forms follow the SMILES beside them. *: point of attachment. Propanoyl(3-(4-HOOCCH2-Ph)) = O=C(O)Cc1ccc(CCC(=O)*)cc1; X3 = CCOC(=O)Cc1ccc(C[C@@H](N[*:1])C(=O)[*:2])cc1; X7 = O=C(C(Cc1ccc(-c2nn[nH]n2)cc1)N[*:1])[*:2]; X9 = O=C(C(Cc1ccc(-c2nnn[nH]2)cc1)N[*:1])[*:2]; X1 = O=C(O)Cc1ccc(CC(N[*:1])C(=O)[*:2])cc1; X2 = O=C(CCc1ccc(Cc2nnn[nH]2)cc1)*; NMeF = CN[C@@H](Cc1ccccc1)C(=O)O; Nle = CCCC[C@H](N)C(=O)O
Reported Metric: IC50 (µM)

Field: example entries. Status: answers known.
Fill blank: measured IC50 of the compound CSCC[C@H](NC(=O)C(Cc1ccc(CC(=O)O)cc1)NC(C)=O)C(=O)NCC(=O)N[C@@H](Cc1c[nH]c2ccccc12)C(=O)N[C@@H](CCSC)C(=O)N[C@@H](CC(=O)O)C(=O)N[C@@H](Cc1ccccc1)C(N)=O (stereo partly shown) [Example 46] (Ac-[X1]MGWMDF-NH2) is ____. 0.0036

Fill blank: measured IC50 of the compound CCOC(=O)Cc1ccc(C[C@@H](NC(C)=O)C(=O)N[C@@H](CCSC)C(=O)NCC(=O)N[C@@H](Cc2c[nH]c3ccccc23)C(=O)N[C@@H](CCSC)C(=O)N[C@@H](CC(=O)OCC)C(=O)N[C@@H](Cc2ccccc2)C(N)=O)cc1 [Example 49] (Ac-[X3]MGWMD(OEt)F-NH2) is ____. 1

Fill blank: measured IC50 of the compound CSCC[C@H](NC(=O)C(Cc1ccc(-c2nn[nH]n2)cc1)NC(C)=O)C(=O)NCC(=O)N[C@@H](Cc1c[nH]c2ccccc12)C(=O)N[C@@H](CCSC)C(=O)N[C@@H](CC(=O)O)C(=O)N[C@@H](Cc1ccccc1)C(N)=O (stereo partly shown) [Example 53] (Ac-[X7]MGWMDF-NH2) is ____. 0.022

Fill blank: measured IC50 of the compound CSCC[C@@H]1NC(=O)[C@H](Cc2c[nH]c3ccccc23)NC(=O)CNC(=O)[C@@H](NC(=O)C(Cc2ccc(-c3nnn[nH]3)cc2)NC(C)=O)CCCCNC(=O)C[C@@H](C(=O)N(C)[C@@H](Cc2ccccc2)C(N)=O)NC1=O (stereo partly shown) [Example 57] (Ac-[X9]KGWMD[NMeF]-NH2; lactam 2-6) is ____. 1.1

Fill blank: measured IC50 of the compound CCCC[C@H](NC(=O)CCc1ccc(CC(=O)O)cc1)C(=O)NCC(=O)N[C@@H](Cc1c[nH]c2ccccc12)C(=O)N[C@@H](CCCC)C(=O)N[C@@H](CC(=O)O)C(=O)N(C)[C@@H](Cc1ccccc1)C(N)=O [Example 70] ({Propanoyl(3-(4-HOOCCH2-Ph))}-[Nle]GW[Nle]D[NMeF]-NH2) is ____. 0.33

I. CCCC[C@H](NC(=O)CCc1ccc(Cc2nnn[nH]2)cc1)C(=O)NCC(=O)N[C@@H](Cc1c[nH]c2ccccc12)C(=O)N[C@@H](CCCC)C(=O)N[C@@H](CC(=O)O)C(=O)N(C)[C@@H](Cc1ccccc1)C(N)=O [Example 66] (X2-[Nle]GW[Nle]D[NMeF]-NH2)
II. CSCC[C@H](NC(=O)CCc1ccc(CC(=O)O)cc1)C(=O)NCC(=O)N[C@@H](Cc1c[nH]c2ccccc12)C(=O)N[C@@H](CCSC)C(=O)N[C@@H](CC(=O)O)C(=O)N[C@@H](Cc1ccccc1)C(N)=O [Example 59] ({Propanoyl(3-(4-HOOCCH2-Ph))}-MGWMDF-NH2)
For the two items I and II , which reports the higher IC50 value? Answer by stating the label of the chosen item. I
